Test system: A673/TR/shEF
Assay: cell viability (LOESS-normalised, relative to median of negative controls) (log2 ratio); higher = more viable cells (less compound effect), active = hit call of the paper (over 3 MAD below the median)
Settings: 0.25 µM; library screen: screen1; EWS-FLI1 expression: high (no doxycycline); treatment time: 72 h
The campaign covered roughly 3,200 compounds. About 300 (9.4%) showed activity. This excerpt belongs to a sample that is enriched for actives.
MEASURED_METRIC: cell viability (log2)
Just the number, please, no unit attached.

cell viability (log2) of O=C1c2c(O)ccc(O)c2C(=O)c2c(NCCNCCO)ccc(NCCNCCO)c21 on A673/TR/shEF?
-1.93

Item: CC(=O)O[C@H]1CC[C@@]2(C)C(=CC[C@H]3[C@@H]4CC[C@H]([C@H](C)CCCC(C)C)[C@@]4(C)CC[C@@H]32)C1 Test system: A673/TR/shEF Read-out: cell viability (log2) Value: ?
0.0694

Form field - read-out: cell viability (log2); system: A673/TR/shEF; submitted item: O=C(/C=C/c1ccc(O)c(O)c1)O[C@H](Cc1ccc(O)c(O)c1)C(=O)O
0.0508

Under A673/TR/shEF: cell viability (log2) value of COc1c(Cl)ccc(Cl)c1C(=O)O ?
0.0938

Every entry's value here was drawn from the supplement of paper PMC6089552.
